compounds and their reported EC50
- system: Beta-1 adrenergic receptor (Homo sapiens)
- Sequence (P08588 whole entry): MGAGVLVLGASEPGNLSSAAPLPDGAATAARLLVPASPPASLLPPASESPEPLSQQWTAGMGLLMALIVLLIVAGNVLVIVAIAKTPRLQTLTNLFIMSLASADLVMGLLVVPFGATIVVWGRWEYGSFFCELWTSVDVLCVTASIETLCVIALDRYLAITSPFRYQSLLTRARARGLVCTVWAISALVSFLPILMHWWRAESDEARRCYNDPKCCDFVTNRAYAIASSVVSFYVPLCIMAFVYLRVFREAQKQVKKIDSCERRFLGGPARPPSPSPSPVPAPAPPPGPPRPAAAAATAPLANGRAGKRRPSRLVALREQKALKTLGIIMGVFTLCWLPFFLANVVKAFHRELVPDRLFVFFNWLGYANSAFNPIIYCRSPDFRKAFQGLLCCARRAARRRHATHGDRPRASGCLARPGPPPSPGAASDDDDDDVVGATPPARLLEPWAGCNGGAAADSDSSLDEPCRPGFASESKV
- assayName: Agonist activity at human beta-1 adrenergic receptor expressed in CHO cells assessed as cAMP levels
- Type: functional, cell-based

Item CCCn1c(=O)[nH]c2cccc(OC[C@@H](O)CNC(C)(C)Cc3ccc(Oc4ccc(C(N)=O)cn4)cc3)c21 has what recorded EC50?
> 10 µM

Field entry: Cn1c(=O)[nH]c2cccc(OC[C@@H](O)CNC(C)(C)Cc3ccc(Oc4ccc(C(N)=O)cn4)cc3)c21
0.0087 µM (agonist)

Field entry: CC(C)(Cc1ccc(Oc2ccc(C(N)=O)cn2)cc1)NC[C@H](O)COc1cccc2[nH]c(=O)n(CCC3CC3)c12
> 10 µM

Field entry: CC(C)(Cc1ccc(Oc2ccc(C(N)=O)cn2)cc1)NC[C@H](O)COc1cccc2[nH]c(=O)n(CCC3CCCC3)c12
> 10 µM

Field entry: CC(C)(Cc1ccc(Oc2ccc(C(N)=O)cn2)cc1)NC[C@H](O)COc1cccc2[nH]c(=O)n(CCC3CCC3)c12
> 10 µM

Field entry: CCn1c(=O)[nH]c2cccc(OC[C@@H](O)CNC(C)(C)Cc3ccc(Oc4ccc(C(N)=O)cn4)cc3)c21
> 10 µM

====

compounds and their reported Emax
- system: Beta-3 adrenergic receptor (Homo sapiens)
- Sequence (P13945 whole entry, looked up): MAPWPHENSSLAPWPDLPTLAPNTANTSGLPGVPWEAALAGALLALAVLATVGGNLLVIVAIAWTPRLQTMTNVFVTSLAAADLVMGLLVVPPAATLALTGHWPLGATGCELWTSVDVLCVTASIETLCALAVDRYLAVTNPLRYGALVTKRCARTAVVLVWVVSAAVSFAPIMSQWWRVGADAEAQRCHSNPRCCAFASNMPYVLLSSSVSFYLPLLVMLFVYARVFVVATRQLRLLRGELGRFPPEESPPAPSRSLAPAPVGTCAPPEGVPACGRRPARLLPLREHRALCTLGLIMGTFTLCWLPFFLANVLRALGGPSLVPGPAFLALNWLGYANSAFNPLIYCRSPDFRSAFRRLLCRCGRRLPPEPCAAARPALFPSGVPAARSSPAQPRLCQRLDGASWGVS
- assayName: Agonist activity at human beta-3 adrenergic receptor expressed in CHO cells assessed as cAMP levels relative to isoproterenol
- Assay type: functional, cell-based
- protocolConditions: filed as agonist
Record the value in %, omitting the unit from your answer.

>>> observedresult("CC(C)(Cc1ccc(Oc2ccc(C(N)=O)cn2)cc1)NC[C@H](O)COc1cccc2[nH]c(=O)n(CCC3CCC3)c12")
58.2
>>> observedresult("CCCn1c(=O)[nH]c2cccc(OC[C@@H](O)CNC(C)(C)Cc3ccc(Oc4ccc(C(N)=O)cn4)cc3)c21")
73.9

Item Cn1c(=O)[nH]c2cccc(OC[C@@H](O)CNC(C)(C)Cc3ccc(Oc4ccc(C(N)=O)cn4)cc3)c21 has what recorded Emax?
79.7

Field entry: CCn1c(=O)[nH]c2cccc(OC[C@@H](O)CNC(C)(C)Cc3ccc(Oc4ccc(C(N)=O)cn4)cc3)c21
65.1

Field entry: CC(C)(Cc1ccc(Oc2ccc(C(N)=O)cn2)cc1)NC[C@H](O)COc1cccc2[nH]c(=O)n(CCC3CCCC3)c12
63.7

Field entry: CC(C)(Cc1ccc(Oc2ccc(C(N)=O)cn2)cc1)NC[C@H](O)COc1cccc2[nH]c(=O)n(CCC3CC3)c12
67.9

====

- assayName: AUC (0-6h) in DIO Long-Evans rat at 10 mg/kg, po
- Format: ADME, organism-based
- Design: time < 6 hr, dose 10 mg/kg, route oral
- protocolConditions: plasma
readout: AUC(0-t) at 6 h (ng·h/mL)
Record the value in ng·h/mL, omitting the unit from your answer.

Item CC(C)(Cc1ccc(Oc2ccc(C(N)=O)cn2)cc1)NC[C@H](O)COc1cccc2[nH]c(=O)n(CCC3CCC3)c12 has what recorded AUC(0-t) at 6 h?
112
